- method: Toxicity liver stage against HepG2, at 10uM
- Assay type: cell-based
- Parameters: test concentration 10 uM, cell line HepG2-A16-CD81EGFP
- assay conditions: human, HepG2-A16-CD81EGFP cells; read-out: INHIBITION
# cytotoxicity at 10 µM values compiled below

{"columns": ["compound", "cytotoxicity at 10 µM [%]"],
 "data": [
  ["Cc1ccc2c(c1)C1(CCNCC1)CN2C(=O)CN(C)C", 0.513],
  ["CC(=O)N1CCCC1c1nnn2cc(NCc3cccnc3)ccc12 (centres undefined)", 17.1],
  ["O=C(c1ccccc1N1CCOCC1)N1CCCC(n2ccnc2)C1 (centres undefined)", -10.7],
  ["CCCNCc1ccc(-c2cc(N)nc3[nH]ccc23)cc1", 19.8],
  ["Cc1nc(CO[C@@H]2CN(Cc3ccc(F)cc3)[C@@H]3COC[C@@H]32)cs1", 5.42],
  ["CC1=C(C(=O)N2CCOC(Cc3cccc(C(F)(F)F)c3)C2)OCCO1 (centres undefined)", 5.31],
  ["COCc1ncc(CN2CCC(Oc3ccccc3C)CC2)cn1", 1.09],
  ["CN1CCC(N(C)C(=O)c2cnc3c(cnn3C3CCCC3)c2)CC1", -26.9],
  ["CC(=O)N1CCN(CC(=O)N2CCN(c3cccc(C)c3)CC2)CC1", -3.83],
  ["Cc1n[nH]c2c1C(c1cnn(C)c1)SCC(=O)N2 (centres undefined)", 7.7],
  ["Oc1cc(CNCCCN2CCCC2)nc2ccc(F)cc12", -56],
  ["CNc1cc(C)nc(N2CCC3(CC2)[C@H](O)C[C@@H]3OC)n1", -6.72],
  ["O=S(=O)(NCC1CCOC1)N1CCc2ccccc2C1 (centres undefined)", -4.06],
  ["CS(=O)(=O)Cc1noc(CN2CCc3c(Cl)cccc3C2)n1", -4.07],
  ["CCC(NC(=O)c1ccc(OC)nn1)c1nc(C(F)(F)F)cs1 (centres undefined)", -3.41],
  ["COc1ccc(CN2CCCC(N3CCCC3)C2)cc1Cn1cncn1 (centres undefined)", 7.33],
  ["CCOC1CC2(CCN(Cc3cccn3C)CC2)C1", -149],
  ["Cc1ccc(C(=O)N2CCN(c3ncnc4nc(N)ccc34)CC2)cc1", 8.88],
  ["CC(CC(=O)NCCNS(C)(=O)=O)C1CCCCC1 (centres undefined)", 6.43],
  ["Cc1ccc(C(=O)N2CCC3(CCN3c3ncccn3)C2)cn1 (centres undefined)", -135],
  ["CCn1ccnc1CN(C)c1cc(N(C)C)ncn1", -42.1],
  ["Cn1ccc(C(=O)NCc2cccc(N3CCCCC3=O)c2)cc1=O", -6.68],
  ["CC(=O)Nc1ccc(CCC2(NC(=O)C3CCCO3)CCCCC2)cn1 (centres undefined)", 1.6],
  ["O=C1CC(c2cccs2)Cc2[nH]c(=O)c(C(=O)NC3CCCC3)cc21 (centres undefined)", 80.5],
  ["COc1cc(C(=O)NCCc2cccc(C)c2)on1", 0.572],
  ["COc1c(CNC2CCCc3ccccc32)c(C(C)C)nn1C (centres undefined)", -2.9],
  ["CN(C)C(C(=O)NCCS(=O)(=O)N(C)C)c1cccc(F)c1 (centres undefined)", 2.73],
  ["CCc1cc(CN(C)C(=O)c2cnon2)on1", 9.83],
  ["CCC(CC(=O)NS(=O)(=O)C(C)C)c1ccccc1 (centres undefined)", -49.1],
  ["O=C(c1ccc(-n2ccnc2)nc1)N1CCN2CCCCC2C1 (centres undefined)", -5.95],
  ["Cn1cccc1C(=O)N1CCC2(CCCN(CC3CCC3)C2=O)C1 (centres undefined)", -2.6],
  ["CCN(CC)c1nc(C)cc(C(=O)Nc2ccc(Br)cc2)n1", 6.46],
  ["CNS(=O)(=O)c1ccc(F)c(C(=O)NCc2ccnc(OC)c2)c1", -9.8],
  ["COCC(O)CN(C)c1ccnc2cc(F)ccc12 (centres undefined)", -2.63],
  ["O=C1CCC(C(=O)NCc2nn(-c3ccccc3)c3c2CCC3)CN1 (centres undefined)", -10.1],
  ["Cc1nn(C)c(C)c1C(C(=O)O)N1CC=C(c2ccccc2)CC1 (centres undefined)", -2.11],
  ["COCc1cccc(CNC(=O)c2c(C)noc2C(C)C)c1", 0.153],
  ["CCN1CCC2(C1)CN(S(=O)(=O)c1cn(C)cn1)C2", -109],
  ["Cc1ccc(CN[C@@H]2CO[C@H](CNS(=O)(=O)c3ccccc3)[C@H]2O)cc1", -10.1]
]}

---

- method: Toxicity liver stage against HepG2, at 10uM
- Assay type: cell-based
- Design: test concentration 10 uM, cell line HepG2-A16-CD81EGFP
- assay conditions: human, HepG2-A16-CD81EGFP cells; read-out: INHIBITION
measurement label: cytotoxicity at 10 µM (%)

{"columns": ["compound", "numeric value"],
 "data": [
  ["O=C(CCCc1ccccn1)N1CCCC(n2cccn2)C1 (centres undefined)", -10.7],
  ["Cc1ccnc(C(NC(=O)c2oc(C)nc2C)C2CC2)n1 (centres undefined)", -0.392],
  ["CCc1nc(CN2CCCC(N(C)Cc3nc(C)c(C)o3)C2)no1 (centres undefined)", -16.5],
  ["CN(C)CCn1ccnc1C1CCCN(c2ncc(Cl)cc2F)C1 (centres undefined)", -1.75],
  ["Cc1nccn1-c1cccc(C2CCCN2S(=O)(=O)N(C)C)n1 (centres undefined)", 3.44],
  ["COc1ccc(CCNC(=O)NCC(O)c2cccc(F)c2)cc1 (centres undefined)", -6.33],
  ["Cc1c(C(=O)N2CCCC(n3cccn3)C2)nnn1-c1ccccc1 (centres undefined)", -3.45],
  ["CSc1nnc(CNC(=O)Nc2ccccc2F)n1C", 4.09],
  ["CO[C@H]1CCN(S(=O)(=O)c2cn(C)cn2)[C@H]1Cc1cnn(C)c1", 2.63]
]}

---

- method: Toxicity liver stage against HepG2, at 10uM
- Assay type: cell-based
- Design: test concentration 10 uM, cell line HepG2-A16-CD81EGFP
- assay conditions: human, HepG2-A16-CD81EGFP cells; read-out: INHIBITION

{"columns": ["compound", "cytotoxicity at 10 µM"],
 "data": [
  ["CC(C)C(C)NC(=O)CNc1cc2c(cc1Cl)NC(=O)CO2 (stereo unspecified)", "0.529%"],
  ["CN(C)C[C@@H]1CN(C(=O)Cc2ccc3ccccc3c2)C[C@@H]1CO", "-8.4%"],
  ["Cc1cc(F)ccc1S(=O)(=O)NCc1cccc(C(=O)N2CCCC2)c1", "-1.2%"],
  ["Cc1cc(N2CCC3(CCC(=O)N(CC4CC4)C3)CC2)ncn1", "-7.8%"],
  ["Cn1cc(NC(=O)c2cccc(Cl)c2)c(=O)n(C)c1=O", "-1.86%"],
  ["CCS(=O)(=O)CC(=O)NC1CCc2nccn2C1 (stereo unspecified)", "17.1%"],
  ["Cc1nc(-c2ccoc2)n(CC(=O)N(C)CC(C)C)c1C", "-4.5%"],
  ["CCC(CC(=O)Nc1ccc2c(c1)CC(=O)N2)c1ccccc1 (stereo unspecified)", "-1.06%"],
  ["Cn1c(Cn2ccnc2)nnc1C1CCCN(Cc2ccncc2)C1 (stereo unspecified)", "12.1%"],
  ["O=C1CN(c2ccc(CNc3cncc(-n4cccn4)n3)cc2)CCN1", "-13.3%"],
  ["CNCC(=O)N[C@H]1CN(c2nc(C)c3c(n2)CCCC3)C[C@@H]1C1CC1", "13.2%"]
]}

---

- method: Toxicity liver stage against HepG2, at 10uM
- Type: cell-based
- Design: test concentration 10 uM, cell line HepG2-A16-CD81EGFP
- assay conditions: human, HepG2-A16-CD81EGFP cells; read-out: INHIBITION
Listed here: items and their measured cytotoxicity at 10 µM.
measurement label: cytotoxicity at 10 µM (%)

{"columns": ["compound", "numeric value"],
 "data": [
  ["CCC[C@H]1CN(Cc2ccc(N(C)C)nc2)C[C@@H]1NC(=O)CSC", 7.78],
  ["CN(C)CCN1CCN(CC2CC2)c2ncccc2C1", -3.03],
  ["Cc1cc(CN2CCN(CC3CC3)[C@@H]3CS(=O)(=O)C[C@@H]32)cc(C)c1O", 2.78],
  ["CC(C)Cc1noc(CN2CCN(C(=O)c3cccc(F)c3)CC2)n1", -5.7],
  ["COc1ccc(C)cc1CN(C)CC(N)=O", -0.691],
  ["CN(C)CC1(O)CCCN(c2noc(-c3ccccc3)n2)CC1 (stereo unspecified)", 0.0264],
  ["Cc1cc(C(=O)N2CCc3ncnc(N4CCSCC4)c3CC2)[nH]n1", -6.98],
  ["CCn1ccnc1CN1C[C@@H](NC(=O)C2CC2)[C@H](c2ccc(C)cc2)C1", 2.63],
  ["CCN(C)C[C@@H]1CN(C(=O)c2cc(-c3ccc(F)cc3)n[nH]2)C[C@@H]1CO", -26.4],
  ["O=C(C1CC=CC1)N1C[C@H]2CN(Cc3ccncc3)C(=O)[C@H]2C1", -86.6],
  ["COCc1cc(O)nc(C2CCCN(Cc3cccc(OC)c3)C2)n1 (stereo unspecified)", 4.97],
  ["CC(C)c1nccn1-c1cncc(C2CCCN(C3CCCC3)C2)n1 (stereo unspecified)", -6.63],
  ["O=C(CCc1nc2ccccc2[nH]1)Nc1ccc2c(c1)OCC(=O)N2", 17.9],
  ["CC(C)Cc1noc(COc2ccc(N(C)C(N)=O)cc2)n1", 34.4],
  ["O=C(NCc1ccccc1)NCc1nc(-c2ccncc2)n[nH]1", 0.449],
  ["FC(F)(F)c1ccc(-n2ccnc2-c2cc3n(n2)CCNC3)cn1", -4.65]
]}
